The entries below come with measured normalized growth values attached.
- assayProcedure: chemical genetic growth profiling, strain panel (AID 1159580);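 also: tested at 20 µM; growth read once vehicle control cultures reached saturation at 30 °C; 1 = growth at the plate median or of vehicle wells; lower values mean less growth of the strain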
- recordedConditions: S. cerevisiae deletion strains, growth OD, locus YKL193C, strain SDS22, hits give low values
Among all 5,500 compounds or so, about 2,000 (36%) were called active. Another 18% or so got no clear call; they are omitted. The list shows a part of the results.
Just the number, please, no unit attached.

compound: N#C/C(=N/Nc1ccc(Cl)cc1)C(=O)C1CC1
observedResult: 0.851

Consider now this further compound.
# input Data request, read-out normalized growth, for CC(Oc1ccc(Cl)cc1Cl)C(=O)NNC(=S)Nc1ccccc1 (configuration not stated)
# output 0.977
